# tested target: furin, P09958;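 also: purified furin at 1:10 enzyme:substrate in 50 mM HEPES pH 7.5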
# Sequence (P09958 whole entry): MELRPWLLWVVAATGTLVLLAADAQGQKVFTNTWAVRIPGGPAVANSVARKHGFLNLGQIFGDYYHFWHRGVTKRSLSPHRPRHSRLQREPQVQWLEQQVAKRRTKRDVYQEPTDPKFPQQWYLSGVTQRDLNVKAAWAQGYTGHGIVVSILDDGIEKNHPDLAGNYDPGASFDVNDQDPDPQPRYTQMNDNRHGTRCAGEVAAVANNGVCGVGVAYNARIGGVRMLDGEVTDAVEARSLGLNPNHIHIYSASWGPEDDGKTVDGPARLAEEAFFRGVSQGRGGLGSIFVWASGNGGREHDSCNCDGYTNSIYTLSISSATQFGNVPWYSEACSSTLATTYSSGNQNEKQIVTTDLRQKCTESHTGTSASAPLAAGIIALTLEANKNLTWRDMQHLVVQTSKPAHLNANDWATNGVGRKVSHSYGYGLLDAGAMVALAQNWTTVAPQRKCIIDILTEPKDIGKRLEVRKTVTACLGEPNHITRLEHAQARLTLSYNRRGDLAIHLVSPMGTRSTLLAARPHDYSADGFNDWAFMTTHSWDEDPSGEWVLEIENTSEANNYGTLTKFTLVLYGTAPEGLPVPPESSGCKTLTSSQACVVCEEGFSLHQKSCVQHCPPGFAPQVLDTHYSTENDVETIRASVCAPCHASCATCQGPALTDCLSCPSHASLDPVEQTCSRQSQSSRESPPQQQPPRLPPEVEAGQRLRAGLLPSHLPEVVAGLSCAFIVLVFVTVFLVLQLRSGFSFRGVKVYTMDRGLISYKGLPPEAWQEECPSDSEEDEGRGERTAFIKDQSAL
# test: furin cleavage Z-score vs untreated control; higher = more cleavage, active = 3.5 or more, inactive = 1 or less, 8 variable residues between constant flanks
# experimental context: 7.5 min
The list shows a part of the results. How many sequences the whole screen found active is unknown.
Classes by furin cleavage Z-score: band 1: < -0.6; band 2: ≥ -0.6 and < 6; band 3: ≥ 6

Previously resolved entries follow.
{"columns": ["monomer sequence", "label class"],
 "data": [
  ["CAMLVCGDDLAGNASASA [HC1527]", "band 1"],
  ["CAGKVLIDILAGNASASA [HC1083]", "band 1"],
  ["CARIKKWLEHAGNASASA [FS-1721]", "band 1"],
  ["CALEVVTSTWAGNASASA [HC987]", "band 2"],
  ["CAPVPRQKRSAGNASASA [FS-1387]", "band 3"]
]}

*Q* Which bin, given its furin cleavage Z-score, does CAVYHGAGTRAGNASASA [HC701] occupy?
*A* band 1

*Q* The entry to classify is CAPVFRQKRSAGNASASA [FS-620] ; which class holds it?
*A* band 3

*Q* Exercise: read the entry CAMEECSQYLAGNASASA [HC1749] and state which class it falls under.
*A* band 2

*Q* Bin this entry: CADRHFRKRSAGNASASA [FS-925]
*A* band 3
